The next entries give measured MIC for Candida albicans ATCC 10231.
The answer is to be given in µM; state only the numeric part.

CC(C)C[C@H](NC(=O)[C@H](Cc1c[nH]c2ccccc12)NC(=O)[C@H](CCCN=C(N)N)NC(=O)CNC(=O)[C@H](CC(C)C)NC(=O)[C@H](CC(C)C)NC(=O)[C@H](CCCCN)NC(=O)[C@H](CO)NC(=O)[C@H](CC(C)C)NC(=O)[C@H](Cc1c[nH]c2ccccc12)NC(=O)[C@H](CCC(N)=O)NC(=O)[C@H](CC(C)C)NC(=O)[C@@H](N)CC(C)C)C(N)=O = 12
CC[C@H](C)[C@H](NC(=O)CNC(=O)[C@H](CO)NC(=O)[C@H](CC(C)C)NC(=O)[C@@H](NC(=O)[C@H](CCCN=C(N)N)NC(=O)CNC(=O)[C@@H](NC(=O)[C@H](CC(C)C)NC(=O)[C@H](C)NC(=O)[C@H](CC(C)C)NC(=O)[C@@H](N)Cc1ccccc1)[C@@H](C)CC)C(C)C)C(=O)N[C@@H](CC(C)C)C(N)=O = 1.25

Now look at this entry.
Q) For the compound CC[C@H](C)[C@H](NC(=O)[C@H](C)NC(=O)[C@H](CO)NC(=O)[C@H](CC(C)C)NC(=O)[C@@H](N)Cc1ccccc1)C(=O)N[C@H](C(=O)N[C@@H](CO)C(=O)N[C@H](C(=O)N[C@@H](CC(C)C)C(=O)NCC(=O)N[C@@H](CCCCN)C(=O)N[C@@H](Cc1ccccc1)C(=O)N[C@@H](Cc1ccccc1)C(N)=O)[C@@H](C)CC)[C@@H](C)O , give its measured MIC value.
A) 25
